subject.of.test: B1R receptor of the rat (Rattus norvegicus, UniProt P97583)
Construct: host or cells: CHO K1 cells (Chinese hamster ovary), stably transfected
Sequence (P97583 1-337): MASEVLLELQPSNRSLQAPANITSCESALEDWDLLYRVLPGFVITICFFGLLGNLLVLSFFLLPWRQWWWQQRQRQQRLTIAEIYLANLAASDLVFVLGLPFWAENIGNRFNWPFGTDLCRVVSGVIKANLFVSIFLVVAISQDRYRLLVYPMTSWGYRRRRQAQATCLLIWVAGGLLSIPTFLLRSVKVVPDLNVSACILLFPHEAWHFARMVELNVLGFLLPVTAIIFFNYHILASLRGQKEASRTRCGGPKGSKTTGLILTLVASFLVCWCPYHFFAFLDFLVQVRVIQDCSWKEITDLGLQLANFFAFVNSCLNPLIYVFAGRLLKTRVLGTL
assay.name: Functional study on the bradykinin receptor 1 (B1R), FLIPR Ca2+ assay, rB1R cells
Assay type: cell-based
measurement.parameters: CHO-K1, test substance 10 μM, agonist Des-Arg9-bradykinin 100 nM, % inhibition compared with the maximum achievable inhibition, read-out: B1R Antagonism, rat [10 μM] % Inhibition
experimental.endpoint: inhibition at 10 µM (%)

[[record]]
compound = "O=C(COCC1CCCCN1S(=O)(=O)c1c(Cl)cccc1Cl)N1CCN(c2ccc(C(F)(F)F)cn2)CC1 (stereo not shown)"
subject_of_test = "B1R receptor of the rat (Rattus norvegicus, UniProt P97583)"
result_number = 101

[[record]]
compound = "CN1CCC(N2CCN(C(=O)COCC3CCCCN3S(=O)(=O)c3c(Cl)cc(C(F)(F)F)cc3Cl)CC2)CC1 (stereo not shown)"
subject_of_test = "B1R receptor of the rat (Rattus norvegicus, UniProt P97583)"
result_number = 102

[[record]]
compound = "COc1cc(C)c(S(=O)(=O)N2CCCCC2COCC(=O)N2CCN(Cc3ccc4nccnc4c3)CC2)c(C)c1 (stereo not shown)"
subject_of_test = "B1R receptor of the rat (Rattus norvegicus, UniProt P97583)"
result_number = 99.3

[[record]]
compound = "COc1cc(C)c(S(=O)(=O)N2CCCCC2COCC(=O)N2CCN(c3cccc(Cl)c3)CC2)c(C)c1 (stereo not shown)"
subject_of_test = "B1R receptor of the rat (Rattus norvegicus, UniProt P97583)"
result_number = 103

[[record]]
compound = "COc1cc(C)c(S(=O)(=O)N2CCCC2COCC(=O)N2CCN(c3ncccn3)CC2)c(C)c1 (stereo not shown)"
subject_of_test = "B1R receptor of the rat (Rattus norvegicus, UniProt P97583)"
result_number = 101

[[record]]
compound = "COc1cc(C)c(S(=O)(=O)N2CCCC2COCC(=O)NCc2ccc(N(C)C)cc2)c(C)c1 (stereo not shown)"
subject_of_test = "B1R receptor of the rat (Rattus norvegicus, UniProt P97583)"
result_number = 107

[[record]]
compound = "COc1cc(C)c(S(=O)(=O)N2CCCCC2COCC(=O)N2CC[C@@H](N(C)C)C2)c(C)c1 (stereo partly shown)"
subject_of_test = "B1R receptor of the rat (Rattus norvegicus, UniProt P97583)"
result_number = 101

